Measured LD50 by item
# protocolNotes: Acute toxicity in mice (oral or intraperitoneal single dose)
# assayConditions: mouse, in vivo, ip, intraperitoneal, observed at least one week, read-out: LD50 ip

Ask: If you can, please state the reported LD50 value of CC1N=C2CC(c3ccccc3)CN2C1=O (racemic) .
Result: > 200 mg/kg

Ask: If you can, please state the reported LD50 value of O=C1CCN=C2CC(c3ccccc3)CN12 (centres unmarked) .
Result: > 200 mg/kg

----------
Measured LD50 by item
# protocolNotes: Acute toxicity in mice (oral or intraperitoneal single dose)
# assayConditions: mouse, in vivo, ip, intraperitoneal, observed at least one week, read-out: LD50 ip

compound: CC(C)C1N=C2CCC(c3ccccc3)CN2C1=O (racemic) [Example 10]
LD50: > 200 mg/kg

compound: O=C1CCCN=C2CC(c3ccccc3)CN12 (stereo not drawn) [Example 18]
LD50: > 200 mg/kg

Pending compound:
Ask: If you can, please state the reported LD50 value of O=C1C(Cc2ccccc2)N=C2CC(c3ccccc3)CN12 (stereo not drawn) [Example 4] .
Result: < 200 mg/kg

Numbers sourced from patent US4325954A.
